- Tested on: Saccharomyces cerevisiae
- Assay comment: Drug uptake in Saccharomyces cerevisiae ADCDR2 at 200 uM pretreated for 10 mins measured after 60 mins by fluorescamine staining in presence of fluconazole
- Format: ADME, organism-based
- Conditions: in vivo, 1 h
Non-standard residues stand in square brackets, D forms with d. Residues, ends and D or L forms follow the SMILES beside them. Phe(3-F) = N[C@@H](Cc1cccc(F)c1)C(=O)O
Quantity name: Drug uptake (nmol/min/mg)
Respond with the bare value in nmol/min/mg.

Answered cases to consult:
Molecule: CC(C)C[C@H](N)C(=O)N[C@@H](Cc1cccc(F)c1)C(=O)O (H-Leu-[Phe(3-F)]-OH)
Unit label: nmol/min/mg
Drug uptake: 2.23
//
Molecule: C[C@H](N)C(=O)N[C@@H](C)C(=O)O (H-Ala-Ala-OH)
Unit label: nmol/min/mg
Drug uptake: 3.94
//
Molecule: CC(C)C[C@H](NC(=O)[C@@H](N)COCCN)C(=O)NCC(=O)O
Unit label: nmol/min/mg
Drug uptake: 1.26

--- query ---
Lookup: // query Drug uptake value for entry C[C@@H]([C@H](N)C(=O)N[C@H](C(=O)O)[C@H]1O[C@@H](n2ccc(=O)[nH]c2=O)[C@H](O)[C@@H]1O)[C@H](O)c1ccc(O)cn1
Found: 0.88
